Data origin: patent US20260201064A1

- experimental.target: T1, recombinant human ASM protein (human, UniProt P17405 47-630)
- T1 construct: Recombinant human ASM in solution; also called acid sphingomyelinase (ASM) protein
- T1 sequence: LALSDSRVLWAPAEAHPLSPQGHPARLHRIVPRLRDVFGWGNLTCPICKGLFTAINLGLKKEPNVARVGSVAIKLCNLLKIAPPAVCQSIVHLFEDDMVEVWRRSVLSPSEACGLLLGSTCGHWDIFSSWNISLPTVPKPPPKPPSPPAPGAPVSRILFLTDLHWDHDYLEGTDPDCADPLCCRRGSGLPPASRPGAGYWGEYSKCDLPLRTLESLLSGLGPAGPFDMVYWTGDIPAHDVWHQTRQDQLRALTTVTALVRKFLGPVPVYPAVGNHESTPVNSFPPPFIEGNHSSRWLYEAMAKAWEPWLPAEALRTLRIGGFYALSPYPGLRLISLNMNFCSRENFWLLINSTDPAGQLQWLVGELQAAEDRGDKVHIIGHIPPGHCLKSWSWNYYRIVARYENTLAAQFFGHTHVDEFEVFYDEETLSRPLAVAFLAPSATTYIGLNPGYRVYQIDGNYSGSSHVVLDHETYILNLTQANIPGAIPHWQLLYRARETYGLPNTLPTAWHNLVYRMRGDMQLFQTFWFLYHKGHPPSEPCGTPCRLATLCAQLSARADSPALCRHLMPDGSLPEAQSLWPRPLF
- experiment.description: BLI (Octet), antibody on AHC sensor
measure: kon (M⁻¹ s⁻¹)
Give bare numbers, in M⁻¹ s⁻¹.

Req: Give the reported value of kon for this record: #9104a-C1 (antibody, human IgG4 S228P, lambda, V domains shown, VH of #9104v-H10 with VL of #9104v-L23; full-length IgG, lambda) VH: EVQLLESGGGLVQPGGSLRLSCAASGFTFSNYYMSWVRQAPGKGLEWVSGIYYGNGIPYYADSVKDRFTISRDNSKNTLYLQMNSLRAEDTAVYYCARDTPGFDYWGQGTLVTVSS VL: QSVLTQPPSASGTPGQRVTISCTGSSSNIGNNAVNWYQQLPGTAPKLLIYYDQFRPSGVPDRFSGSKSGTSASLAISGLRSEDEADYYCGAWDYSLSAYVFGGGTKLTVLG
Resp: 271000
